Each recorded value in this set is attributed to patent US11214803B2.

Tested on: Yap1 mRNA
Experiment: Dose-dependent inhibition of human Yap1 in A-431 cells (Example 6, 5,000 cells per well, RTS4814)
Assay type: cell-based
Conditions: Table 54; A-431 cells, Yap1 mRNA; linear regression on a log/linear plot
pIC50: −log10 of the molar value. Strand notation (5' to 3'): a small letter for the sugar, then the base; units joined by * are phosphorothioate-linked, units joined directly phosphodiester-linked; [ ] holds rarer units or linkages, { } end groups; capitals alone tell only the bases. k = constrained ethyl (cEt); [5mC] = 5-methylcytosine; d = 2'-deoxy (DNA)
# pIC50 values compiled below

Illustrative cases are given below, each with its answer.
substance	pIC50
716481 (antisense kT*k[5mC]*kA*dG*d[5mC]*dA*dT*dA*dG*dA*dA*dG*dT*kA*kG*kG) [compound 716481]	5.70
715435 (kG*kG*kT*d[5mC]*dT*dT*dG*dT*dT*d[5mC]*dT*dT*dA*kT*kG*kG; antisense) [compound 715435]	5.47
716577 (antisense kT*k[5mC]*kT*dG*dT*d[5mC]*dA*dG*dT*dT*dA*dT*d[5mC]*k[5mC]*kT*kA) [compound 716577]	< 5.40
715478 (kA*k[5mC]*k[5mC]*dA*dT*dT*dA*dT*dT*dA*d[5mC]*dT*d[5mC]*k[5mC]*kT*kG; antisense) [compound 715478]	6.22
715582 (kG*kT*k[5mC]*dA*dA*dG*d[5mC]*d[5mC]*dT*dG*dT*d[5mC]*dT*kG*kG*kA; antisense) [compound 715582]	< 5.40
716445 (antisense kG*kT*kA*dT*dG*dT*dG*dG*d[5mC]*dA*dA*dT*dA*kA*kT*kT) [compound 716445]	5.59
716376 (k[5mC]*kG*kA*dA*dG*dA*dT*dG*d[5mC]*dT*dG*dA*dG*k[5mC]*kT*kG; antisense) [compound 716376]	< 5.40
716454 (antisense k[5mC]*kG*kA*dG*dA*dT*dT*dT*dA*dA*dA*dT*dA*kA*kG*kG) [compound 716454]	5.59
716370 (k[5mC]*kA*kG*dT*dG*d[5mC]*d[5mC]*dT*dG*d[5mC]*dA*dT*d[5mC]*kA*kG*kT; antisense) [compound 716370]	< 5.40
715414 (kA*kA*k[5mC]*dA*dT*dG*d[5mC]*dT*dG*dT*dG*dG*dA*kG*kT*k[5mC]; antisense) [compound 715414]	< 5.40

Test item 716493 (antisense kA*k[5mC]*kA*dT*dT*dG*dA*dA*dA*dG*dA*d[5mC]*d[5mC]*k[5mC]*kT*kT) [compound 716493] ; Yap1 mRNA; reported pIC50 was < 5.40

Test item 716469 (antisense kG*kT*kT*dT*dG*d[5mC]*dT*d[5mC]*d[5mC]*dT*dT*dT*d[5mC]*k[5mC]*kA*kA) [compound 716469] ; Yap1 mRNA; reported pIC50 was < 5.40

Test item 715558 (k[5mC]*kA*kG*dG*dA*dA*dG*dT*dT*dA*dT*dT*d[5mC]*kA*kG*k[5mC]; antisense) [compound 715558] ; Yap1 mRNA; reported pIC50 was < 5.40

Test item 716484 (antisense k[5mC]*kA*k[5mC]*dT*dT*dT*dT*d[5mC]*d[5mC]*dA*dG*d[5mC]*dT*kA*kA*k[5mC]) [compound 716484] ; Yap1 mRNA; reported pIC50 was < 5.40

Test item 716502 (antisense k[5mC]*kA*k[5mC]*dA*dG*dT*dG*dA*dT*dT*dG*d[5mC]*dA*kT*kT*kT) [compound 716502] ; Yap1 mRNA; reported pIC50 was 6.10

Test item 715471 (kT*kA*kT*d[5mC]*dT*dA*dG*d[5mC]*dT*dT*dG*dG*dT*kG*kG*k[5mC]; antisense) [compound 715471] ; Yap1 mRNA; reported pIC50 was < 5.40

Test item 716496 (antisense kG*kA*kA*dG*dA*dG*dA*dT*dT*dT*dT*dA*dT*kG*k[5mC]*k[5mC]) [compound 716496] ; Yap1 mRNA; reported pIC50 was < 5.40

Test item 716424 (antisense kG*k[5mC]*kA*dA*dT*dG*dG*dA*d[5mC]*dA*dA*dG*dG*kA*kA*kG) [compound 716424] ; Yap1 mRNA; reported pIC50 was 5.70

Test item 716505 (antisense kG*kA*kT*dT*dT*dA*dA*dT*d[5mC]*dT*dT*dT*d[5mC]*kT*kG*k[5mC]) [compound 716505] ; Yap1 mRNA; reported pIC50 was < 5.40
